# Measurement Target: SIRT1 (Homo sapiens)
# Sequence (Q96EB6 whole entry): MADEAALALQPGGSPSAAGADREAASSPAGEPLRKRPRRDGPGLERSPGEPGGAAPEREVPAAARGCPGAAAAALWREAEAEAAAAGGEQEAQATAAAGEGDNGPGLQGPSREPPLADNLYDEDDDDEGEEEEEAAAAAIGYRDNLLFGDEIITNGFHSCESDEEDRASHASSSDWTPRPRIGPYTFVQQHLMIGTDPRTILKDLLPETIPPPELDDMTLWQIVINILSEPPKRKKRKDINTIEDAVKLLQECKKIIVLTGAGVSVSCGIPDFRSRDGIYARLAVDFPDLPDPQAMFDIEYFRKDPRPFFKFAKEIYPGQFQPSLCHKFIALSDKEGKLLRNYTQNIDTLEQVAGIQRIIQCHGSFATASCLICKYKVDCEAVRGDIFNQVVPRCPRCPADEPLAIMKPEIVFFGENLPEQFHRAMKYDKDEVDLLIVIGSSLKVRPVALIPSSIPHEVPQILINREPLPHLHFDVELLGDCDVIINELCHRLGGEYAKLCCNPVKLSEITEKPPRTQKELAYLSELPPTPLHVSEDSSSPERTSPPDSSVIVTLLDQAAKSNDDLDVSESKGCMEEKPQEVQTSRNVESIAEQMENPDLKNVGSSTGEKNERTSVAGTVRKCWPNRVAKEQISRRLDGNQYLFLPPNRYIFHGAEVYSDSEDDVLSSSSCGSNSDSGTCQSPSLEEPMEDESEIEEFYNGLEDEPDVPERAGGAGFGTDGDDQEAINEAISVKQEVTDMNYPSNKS
# Test Method Notes: SIRT1 mass spectrometry (MS) based deacetylation assay
# Format: biochemical
# Settings: Sirt1 activators; mass spectrometry assay; read-out: ED50 MS ASSAY
pEC50: −log10 of the molar value.
Parameter: pEC50

Compound: COc1cc(C(=O)Nc2ccccc2-c2nc3ccccc3[nH]2)ccc1CN1CCOCC1 [Compound 503]
Parameter: pEC50
Result: > 5.30

Compound: COc1ccc(CNC(=S)Nc2cccc(-c3nc4ccncc4s3)c2)cc1 [Compound 498]
Parameter: pEC50
Result: 4.30 to 5.30

Compound: COc1cc(C(=O)Nc2ccccc2-c2nc3ncccc3o2)ccc1CN1CCCC1 [Compound 629]
Parameter: pEC50
Result: 4.30 to 5.30

Compound: O=C(Nc1ccccc1-c1cn2c(CN3CCNCC3)csc2n1)c1c[nH]c2ccccc12 [Compound 510]
Parameter: pEC50
Result: > 5.30

Compound: COc1cc(NC(=N)Nc2cc(-c3nc4ncccc4o3)ccn2)cc(OC)c1OC [Compound 635]
Parameter: pEC50
Result: < 3.82

Compound: O=C(Nc1ccccc1-c1nc2cc(CN3CCNCC3)cnc2s1)c1ccc2c(c1)OCO2 [Compound 590]
Parameter: pEC50
Result: 4.30 to 5.30

Compound: CC(=O)N1CCN(Cc2csc3nc(-c4ccccc4NC(=O)c4cnc5ccccc5n4)cn23)CC1 [Compound 651]
Parameter: pEC50
Result: > 5.30

Compound: CN(C)c1cccc(C(=O)Nc2ccccc2-c2cn3cccnc3n2)c1 [Compound 504]
Parameter: pEC50
Result: 4.30 to 5.30

Compound: O=C(Nc1ccccc1-c1cn2c(CN3CCCC3)csc2n1)c1cnc2ccccc2n1 [Compound 619]
Parameter: pEC50
Result: > 5.30

Compound: O=C(Nc1ccccc1-c1nc2cccnc2[nH]1)c1ccccc1 [Compound 533]
Parameter: pEC50
Result: > 5.30

Compound: CN(C)c1ccc(C(=O)Nc2ccccc2-c2nc3cccnc3[nH]2)cc1 [Compound 534]
Parameter: pEC50
Result: > 5.30

Compound: COc1cc(OC)cc(C(=O)Nc2ccccc2-c2nc3cccnc3[nH]2)c1 [Compound 521]
Parameter: pEC50
Result: > 5.30

Compound: COc1cc(C)ccc1C(=O)Nc1ccccc1-c1nc2cccnc2[nH]1 [Compound 523]
Parameter: pEC50
Result: 4.30 to 5.30

Compound: COc1ccc(NC(=S)Nc2cccc(-c3nc4ccncc4s3)c2)c(OC)c1 [Compound 599]
Parameter: pEC50
Result: > 5.30

Compound: Cc1cc(C(=O)Nc2ccccc2-c2nc3ccncc3s2)n(C(C)(C)C)n1 [Compound 462]
Parameter: pEC50
Result: > 5.30

Compound: COc1cc(C(=O)Nc2ccc(-c3nc4ccncc4o3)s2)cc(OC)c1OC [Compound 563]
Parameter: pEC50
Result: 4.30 to 5.30

Compound: S=C(Nc1ccc(-n2cccn2)cc1)Nc1cccc(-c2nc3ccncc3s2)c1 [Compound 481]
Parameter: pEC50
Result: 4.30 to 5.30

Compound: O=C(Nc1ccccc1-c1cn2c(CN3CCCCC3)csc2n1)c1cnc2ccccc2n1 [Compound 618]
Parameter: pEC50
Result: > 5.30

Compound: COc1cc(C(=O)Nc2ccccc2-c2nc3ncccc3o2)ccc1CN1CCOCC1 [Compound 631]
Parameter: pEC50
Result: > 5.30

Compound: COc1cc(C(=O)Nc2cc(-c3nc4ncccc4o3)ccn2)ccc1CN1CCN(C)CC1 [Compound 637]
Parameter: pEC50
Result: < 3.82

Compound: O=C(Nc1ccccc1-c1nc2ncccc2o1)c1ccc(Oc2ncccn2)cc1 [Compound 668]
Parameter: pEC50
Result: 4.30 to 5.30

Compound: O=C(Nc1ccccc1-c1nc2cc(CN3CCNCC3)cnc2s1)c1cnc2ccccc2n1 [Compound 622]
Parameter: pEC50
Result: > 5.30

Compound: CN(C)c1ccc(C(=O)Nc2ccc(-c3nc4cnccc4s3)s2)cc1 [Compound 519]
Parameter: pEC50
Result: > 5.30

Compound: COc1cc(C(=O)Nc2ccccc2-c2cn3cccnc3n2)ccc1CN1CCOCC1 [Compound 542]
Parameter: pEC50
Result: 4.30 to 5.30

Compound: COc1cc(C(=O)Nc2cc(-c3nc4ncccc4o3)ccn2)ccc1CN1CCN(Cc2ccccc2)CC1 [Compound 643]
Parameter: pEC50
Result: 4.30 to 5.30

Compound: O=C(Nc1ccccc1-c1cn2c(CN3CCN(Cc4ccccc4)CC3=O)csc2n1)c1cnc2ccccc2n1 [Compound 628]
Parameter: pEC50
Result: > 5.30

Compound: COc1cc(C(=O)Nc2cc(-c3nc4ncccc4o3)ccn2)ccc1CN1CCCC1 [Compound 572]
Parameter: pEC50
Result: 4.00 to 4.29

Compound: CCn1ccc(C(=O)Nc2ccccc2-c2nc3ncccc3o2)n1 [Compound 581]
Parameter: pEC50
Result: 4.30 to 5.30

Compound: COc1cc(OC)cc(C(=O)Nc2ccccc2-c2nc3cc(CN4CCNCC4)cnc3s2)c1 [Compound 589]
Parameter: pEC50
Result: > 5.30

Compound: COc1cccc(C(=O)Nc2ccccc2-c2nc3cccnc3[nH]2)c1 [Compound 532]
Parameter: pEC50
Result: > 5.30

Compound: O=C(Nc1ccccc1-c1nc2ccccc2[nH]1)c1cnc2ccccc2n1 [Compound 508]
Parameter: pEC50
Result: > 5.30

Compound: COc1cccc(C(=O)Nc2ccccc2-c2nc3cccnc3[nH]2)c1C [Compound 530]
Parameter: pEC50
Result: > 5.30

Compound: Cc1cc(C)cc(C(=O)Nc2cc(-c3nc4ncccc4o3)ccn2)c1 [Compound 468]
Parameter: pEC50
Result: 4.30 to 5.30

Compound: COc1cc(C(=O)Nc2ccccc2-c2nc3cccnc3[nH]2)ccc1CN1CCOCC1 [Compound 537]
Parameter: pEC50
Result: > 5.30
